biological target: Sialic acid-binding Ig-like lectin 9 (Homo sapiens) (UniProt Q9Y336); assay: Hs-Siglec9 ALPHAscreen SOP 20170721; parameters: scale not given: direction of the effect not stated beside the values; conditions: 10 µM
Sequence (Q9Y336 whole entry): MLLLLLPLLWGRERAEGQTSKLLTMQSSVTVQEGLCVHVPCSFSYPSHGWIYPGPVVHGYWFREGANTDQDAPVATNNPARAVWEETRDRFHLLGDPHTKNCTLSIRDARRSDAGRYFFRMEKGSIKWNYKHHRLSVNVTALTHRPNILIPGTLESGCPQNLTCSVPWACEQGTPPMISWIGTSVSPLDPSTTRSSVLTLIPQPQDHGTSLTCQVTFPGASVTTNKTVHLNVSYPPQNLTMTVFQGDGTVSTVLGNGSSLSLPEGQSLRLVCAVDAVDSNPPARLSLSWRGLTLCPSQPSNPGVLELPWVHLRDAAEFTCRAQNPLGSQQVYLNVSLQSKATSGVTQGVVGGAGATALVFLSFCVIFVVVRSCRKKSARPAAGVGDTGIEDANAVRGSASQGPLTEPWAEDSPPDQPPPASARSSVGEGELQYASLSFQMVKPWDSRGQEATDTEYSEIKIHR
Reported Percent Effect values for the following compounds.
quantity-measured: Percent Effect (%)

compound	target-or-system	quantity-measured	val
CCN(c1ccc(C(=O)NCCCN2CCCC2)cc1)S(=O)(=O)CC	Sialic acid-binding Ig-like lectin 9 (Homo sapiens) (UniProt Q9Y336)	Percent Effect	-1.94
CC(C#N)CSc1ccccc1NCC(=O)NCc1ccccc1 (centres undefined)	Sialic acid-binding Ig-like lectin 9 (Homo sapiens) (UniProt Q9Y336)	Percent Effect	8.76
CS(=O)(=O)N1C[C@@H]2CC[C@H](C1)N(Cc1cscn1)C2=O	Sialic acid-binding Ig-like lectin 9 (Homo sapiens) (UniProt Q9Y336)	Percent Effect	7.01
Cc1noc(C(C)C)c1C(=O)N1CCOCC1CC(=O)c1ccco1 (centres undefined)	Sialic acid-binding Ig-like lectin 9 (Homo sapiens) (UniProt Q9Y336)	Percent Effect	-3.82
CCN(Cc1ccc2c(c1)OCO2)C(=O)c1ccc(C)[nH]c1=O	Sialic acid-binding Ig-like lectin 9 (Homo sapiens) (UniProt Q9Y336)	Percent Effect	-3.99
CN(C)C(=O)NC[C@H]1OC[C@@H]2CCN(Cc3ccoc3)C[C@@H]21	Sialic acid-binding Ig-like lectin 9 (Homo sapiens) (UniProt Q9Y336)	Percent Effect	-3.37
CC(C)Nc1ncnc2c1CCN(C(=O)c1ccncc1F)CC2	Sialic acid-binding Ig-like lectin 9 (Homo sapiens) (UniProt Q9Y336)	Percent Effect	-7.16
CN(CC(=O)N(C)C1CCCCC1)C1CCc2ccccc21 (centres undefined)	Sialic acid-binding Ig-like lectin 9 (Homo sapiens) (UniProt Q9Y336)	Percent Effect	-4.14
Cc1noc(C)c1CNCC1CCN(CC(O)c2ccccc2)CC1 (centres undefined)	Sialic acid-binding Ig-like lectin 9 (Homo sapiens) (UniProt Q9Y336)	Percent Effect	6.03
Cn1cc(CC2CCN(C(=O)NCc3cn4ccsc4n3)C2)cn1 (centres undefined)	Sialic acid-binding Ig-like lectin 9 (Homo sapiens) (UniProt Q9Y336)	Percent Effect	-0.407
CC(C)c1nn(C)c(N(C)C)c1CNCc1ccc2c(c1)OCO2	Sialic acid-binding Ig-like lectin 9 (Homo sapiens) (UniProt Q9Y336)	Percent Effect	1.82
COc1ccc(S(=O)(=O)NCc2cccnc2N(C)C)cc1F	Sialic acid-binding Ig-like lectin 9 (Homo sapiens) (UniProt Q9Y336)	Percent Effect	-2.51
Cn1ncc2c(=O)[nH]c(CN3CCCC3c3cccs3)nc21 (centres undefined)	Sialic acid-binding Ig-like lectin 9 (Homo sapiens) (UniProt Q9Y336)	Percent Effect	-3.9
C[C@H](O)CNC(=O)c1cnc(-c2ccccc2)nc1O	Sialic acid-binding Ig-like lectin 9 (Homo sapiens) (UniProt Q9Y336)	Percent Effect	24.9
CC(=O)c1cn(CC(=O)NC(C(=O)O)C(C)C)c2ccccc12 (centres undefined)	Sialic acid-binding Ig-like lectin 9 (Homo sapiens) (UniProt Q9Y336)	Percent Effect	-4.07
CN1CCN(C(=O)[C@@H]2CCO[C@@H]3CCN(c4ncccn4)C[C@@H]32)CC1	Sialic acid-binding Ig-like lectin 9 (Homo sapiens) (UniProt Q9Y336)	Percent Effect	0.601
CCOc1ccc(CNCCCn2ccnc2)cc1Br	Sialic acid-binding Ig-like lectin 9 (Homo sapiens) (UniProt Q9Y336)	Percent Effect	3.52
CCN(CC)C(=O)CCc1c(C)nc2cc(O)nn2c1C	Sialic acid-binding Ig-like lectin 9 (Homo sapiens) (UniProt Q9Y336)	Percent Effect	0.0855
Cc1cc(CN2CCN(C(=O)c3sccc3C(C)C)CC2)no1	Sialic acid-binding Ig-like lectin 9 (Homo sapiens) (UniProt Q9Y336)	Percent Effect	0.935
CSC(C)C(=O)NCCCc1cc(N)n(-c2ccccc2)n1 (centres undefined)	Sialic acid-binding Ig-like lectin 9 (Homo sapiens) (UniProt Q9Y336)	Percent Effect	-3.4
CCOc1ccc(Cl)cc1C1CCCN1 (centres undefined)	Sialic acid-binding Ig-like lectin 9 (Homo sapiens) (UniProt Q9Y336)	Percent Effect	1.21
O=C(O)C1(Cc2cccc(-c3ccc(F)c(F)c3)c2)CCOCC1	Sialic acid-binding Ig-like lectin 9 (Homo sapiens) (UniProt Q9Y336)	Percent Effect	4.42
O=C(Cn1cccn1)NCC1(c2ccccc2)CC1	Sialic acid-binding Ig-like lectin 9 (Homo sapiens) (UniProt Q9Y336)	Percent Effect	-7.24
CC(=O)c1cc(CN2C[C@H]3CC[C@@H]2CN(S(=O)(=O)N(C)C)C3)cs1	Sialic acid-binding Ig-like lectin 9 (Homo sapiens) (UniProt Q9Y336)	Percent Effect	36

The origin of these recorded values is ChEMBL document CHEMBL3988442.
